- Test system: EKVX NSCLC
- protocol: NCI tumour cell line growth inhibition, 48 h
// reported TGI for each item listed
readout label: TGI

compound	tgt	result
O=C1CSC(c2cccs2)N1c1nc2cc3sc(N4C(=O)CSC4c4cccs4)nc3cc2s1 (stereo not given)	EKVX NSCLC	> 50 µM
COC(=O)Cc1c([C@H]2[C@H](CC(=O)OC)c3ccccc3N2C(C)=O)[nH]c2ccccc12	EKVX NSCLC	> 100 µM
COC1/C=C\C=C(/C)C(=O)NC2=CC(=O)C(=O)C(=C2O)CC(C)CC(OC)C(O)C(C)/C=C(\C)C1OC(N)=O (stereo not given)	EKVX NSCLC	32.7 µM
CC(C)C(=O)NC(=S)Nc1ccc([N+](=O)[O-])cc1C#N	EKVX NSCLC	> 100 µM
COc1ccc(/C(COc2c(-c3ccccc3)oc3ccccc3c2=O)=N\O)cc1	EKVX NSCLC	> 50 µM
COC1(OC)CCCCC2c3cccc(OC(C)=O)c3C21OC(C)=O (stereo not given)	EKVX NSCLC	> 100 µM
CC[C@@]1(O)C(=O)OCc2c1cc1n(c2=O)Cc2c-1nc1cc3c(cc1c2CCl)OCO3	EKVX NSCLC	> 44.6 µM
O=C(Cc1ccccc1)NN1C(=O)/C(=C\c2ccc([N+](=O)[O-])cc2)SC1=Nc1ccccc1	EKVX NSCLC	> 100 µM
CCOc1cc(-c2nc3ccccn3c2/N=C/c2cc(Br)ccc2O)ccc1O	EKVX NSCLC	76.6 µM
COc1cc(C2NC(=O)c3ccccc3N2)ccc1OCCCCCOc1c(OC)cc(C2=NOC(c3cc(OC)c(OC)c(OC)c3)C2)cc1OC (stereo not given)	EKVX NSCLC	> 100 µM
CC(C)c1nc(CN(C)C(=O)N[C@H](C(=O)N[C@@H](Cc2ccccc2)C[C@H](O)[C@H](Cc2ccccc2)NC(=O)OCc2cncs2)C(C)C)cs1	EKVX NSCLC	> 100 µM
CC[C@]1(O)C[C@@H]2CN(CCc3c([nH]c4ccccc34)[C@@](C(=O)OC)(c3cc4c(cc3OC)N(C)[C@H]3[C@@](O)(C(=O)OC)[C@H](OC(C)=O)[C@]5(CC)C=CCN6CC[C@]43[C@@H]65)C2)C1	EKVX NSCLC	> 79 µM
Cc1nn(-c2cc(Cl)ccc2[N+](=O)[O-])c(C)c1Cl	EKVX NSCLC	> 100 µM
CC1CC(=O)Nc2nc3ccccc3n21 (stereo not given)	EKVX NSCLC	> 100 µM
NC(=O)c1ccc(I)c(N)c1	EKVX NSCLC	> 100 µM
Oc1ccc2ccccc2c1N=Nc1nccs1	EKVX NSCLC	> 54.3 µM
Cc1nc(C)c(Cc2ccccc2)o1	EKVX NSCLC	> 100 µM
Cc1cn(C(C)OCCN2C(=O)c3ccccc3C2=O)c(=O)[nH]c1=O (stereo not given)	EKVX NSCLC	> 100 µM
CC1=CC(=Nc2ccc(N(CCCl)CCCl)cc2)C=C(C)C1=O	EKVX NSCLC	35 µM
C/C(CC(=O)Nc1ccc(C)cc1C)=N/N=C(N)N	EKVX NSCLC	> 100 µM
